Recorded values, source PubChem BioAssay AID1498.

# Measurement protocol: Confirmation Concentration-Response Assay for Modulators of Lamin A Splicing
# Cond: HeLa lamin A splicing GFP/RFP minigene, Acumen, 48 h; GFP/RFP ratio at top concentration, at 46.1 µM
Results filed as inconclusive are left out.
Value kind: ratio activity (%)
Your answer should be a plain number; it is taken to be in %.

Please review the entries below; each comes with its answer.
>>> print(df.to_string())
                           smiles_structure      value_kind  experimental_result
0          Cn1c(Sc2ccccc2Cl)c(C=O)c2ccccc21  ratio activity                0.328
1  Cc1noc(C)c1-c1ccc2ncnc(NCc3cccc(-c4ccccc4)c3)c2c1  ratio activity                -27.8
2  O=C(COc1ccc(Br)cc1)NNC(=S)NC(=O)c1ccccc1[N+](=O)[O-]  ratio activity                -24.6
3  O=C(Nc1ccc(F)cc1)c1nc[nH]c1C(=O)Nc1ccccc1[N+](=O)[O-]  ratio activity                -10.8
4  Cc1cc(/C=N/n2cnnc2)c(C)n1-c1cccc(C(=O)O)c1  ratio activity                -3.02
5  O=C(CCCN1CC=C(n2c(=O)[nH]c3ccccc32)CC1)c1ccc(F)cc1  ratio activity                -13.7
6  COc1ccc(O)c(/C=N/NC(=O)c2ccc(OCc3cccc(Br)c3)cc2)c1  ratio activity                -5.52
7                   Cc1cccc(C)c1OC[C@H](C)N  ratio activity                -11.5
8  Cc1nc2ccc(NC(=O)c3ccc(Cl)c(S(=O)(=O)N(C)c4ccccc4)c3)cc2s1  ratio activity                -11.5
9  CC(=O)Nc1ccc(-c2csc(NC(=O)C3CCN(S(=O)(=O)c4cccs4)CC3)n2)cc1  ratio activity                -13.5

For reference, reported ratio activity for CC1=NS(=O)(=O)c2cc(Cl)ccc2N1 stands at -9.16

For reference, reported ratio activity for Cc1cc(Nc2ccccc2)nc2cc(O)ccc12 stands at -18.8
